Here's a batch of compounds along with measured Log K for Carbonic anhydrase 2 (Homo sapiens) (UniProt P00918).
Measure Name: Log K

* CCCc1ccc(S(N)(=O)=O)cc1 | 7.77
* CCOC(=O)c1ccc(S(N)(=O)=O)cc1 | 8.5
* CCCCCCOC(=O)c1ccc(S(N)(=O)=O)cc1 | 9.39
* CNC(=O)c1ccc(S(N)(=O)=O)cc1 | 7.08
* CCCCCNC(=O)c1ccc(S(N)(=O)=O)cc1 | 8.75
* CCCCCOC(=O)c1ccc(S(N)(=O)=O)cc1 | 9.39

###

# Experiment Description: Partition coefficient (logP)
# Assay type: physicochemical
# Measurement Setup: octanol/water
Measure Name: logP

• CCCCCOC(=O)c1ccccc1S(N)(=O)=O = 2.55

P: NS(=O)(=O)c1ccccc1 [BENZENESULFONAMIDE]
Q: CCCCCNC(=O)c1ccc(S(N)(=O)=O)cc1
Q. Problem: Given the entries P and Q , determine which has the lower reported logP. Field: selected label. Fill in the label of the entry you choose.
A. P
